- Tgt: UBE2T (Homo sapiens)
- Sequence (Q9NPD8 whole entry): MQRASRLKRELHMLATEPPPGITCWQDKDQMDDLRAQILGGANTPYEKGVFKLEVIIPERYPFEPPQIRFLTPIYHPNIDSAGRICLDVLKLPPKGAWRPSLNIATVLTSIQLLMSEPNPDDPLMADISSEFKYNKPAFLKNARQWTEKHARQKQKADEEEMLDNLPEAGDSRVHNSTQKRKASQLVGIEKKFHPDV
Property: pKd
One number for each entry, as −log10 of the molar value.

# pKd of `NS(=O)(=O)c1ccc(NC(=O)c2c(O)c3c4c(sc3[nH]c2=O)CCCC4)cc1` = 4.30
